measured_on: GABA-A receptor; anion channel
procedure_summary: In vitro affinity at the Benzodiazepine receptor (BzR) is its ability to displace [3H]diazepam from BzR.
Would you mind telling me the reported pIC50 of each entry?
One number for each entry, as −log10 of the molar value.

>  <query_smiles>
c1ccc2c(c1)cnn1c2nc2c3c4ccccc4nc-3c[nH]c21

>  <measured_on>
GABA-A receptor; anion channel

>  <pIC50>
6.70

$$$$

# map each compound to its pIC50
1. CCOc1cc2c3ccccc3nc-2c[nH]1.Cl
2. Cl.c1cnc2c3[nH]cc4[nH]c5ccccc5c4c-3nc2c1

Outgoing:
1. 7.62
2. 7.99

Return reported pIC50 values for all items listed beneath this line.
1. Cl.c1ccc2c(c1)[nH]c1c[nH]c3c4ccncc4nc-3c12
2. Cl.c1ccc2c(c1)[nH]c1c[nH]c3c4cccnc4nc-3c12
3. CCc1c(C(=O)OC)[nH]cc2nc3cc(OC)c(OC)cc3c1-2.Cl
4. c1ccc2c(c1)[nH]c1cnc3c(nc4ccccn43)c12

Outgoing:
1: 7.29; 2: 7.97; 3: 9.00; 4: 7.41

* * *

procedure_summary: Solubility in water.
Format: physicochemical
condition_set: read-out: S
Exercise: state measured log10(solubility) for each of the compounds provided.
// units: µg/mL (pre-log); metric: solubility; scale: log10

Solved entries:
>  <query_smiles>
Cl.c1ccc2c(c1)[nH]c1c[nH]c3c4ccncc4nc-3c12

>  <log10(solubility)>
4.11

$$$$
>  <query_smiles>
CCOc1cc2c3ccccc3nc-2c[nH]1.Cl

>  <log10(solubility)>
4.08

$$$$
>  <query_smiles>
CCOC(=O)c1cc2c3ccccc3nc-2c[nH]1.Cl

>  <log10(solubility)>
3.00

$$$$
>  <query_smiles>
Cl.c1ccc2c(c1)[nH]c1c[nH]c3c4cccnc4nc-3c12

>  <log10(solubility)>
3.88

$$$$

Shift focus to the following entry.
Incoming: Note down log10(solubility) recorded for Cl.c1cnc2c3[nH]cc4[nH]c5ccccc5c4c-3nc2c1
Outgoing: 4.04

* * *

measured_on: GABA-A receptor; anion channel
procedure_summary: In vitro affinity at the Benzodiazepine receptor (BzR) is its ability to displace [3H]diazepam from BzR.
pIC50: −log10 of the molar value.
endpoint_name: pIC50

# per-item lookup of pIC50; items listed below
1. c1ccc2c(c1)ccc1[nH]c3c4c5ccccc5nc-4c[nH]c3c12
2. c1ccc2c(c1)ccc1nc3c4c5ccccc5nc-4c[nH]c3n12
3. c1ccc2c3c4ncc5[nH]c6ccccc6c5c4nc-3c[nH]c2c1
4. c1ccc2c(c1)ccn1c2nc2c3c4ccccc4nc-3c[nH]c21
5. c1ccc2c(c1)ccc1c3[nH]cc4nc5ccccc5c-4c3[nH]c21

Outgoing:
["< 6.90", "< 5.52", "< 6.00", "< 5.70", "< 6.90"]

* * *

Hi there, I'd appreciate the recorded solubility for every entry that follows.
procedure_summary: Solubility in water.
Assay type: physicochemical
condition_set: read-out: S

Example results:
>  <query_smiles>
CCOC(=O)c1cc2c(cn1)[nH]c1ccccc12

>  <solubility>
< 200 µg/mL

$$$$
>  <query_smiles>
CCc1c(C(=O)OC)[nH]cc2nc3cc(OC)c(OC)cc3c1-2.Cl

>  <solubility>
< 200 µg/mL

$$$$

# ---- query compound ----
Incoming: Tell me measured solubility for Cl.c1ccc2c(c1)[nH]c1c2ncc2[nH]c3ccccc3c21 please.
Outgoing: < 2000 µg/mL
